Consider the following binders; for each one, report its Mean % WT Binding.
# testedSystem: human CD33 G263A (human, UniProt P20138 18-364)
# Sequence (P20138 18-364 G263A limits assumed): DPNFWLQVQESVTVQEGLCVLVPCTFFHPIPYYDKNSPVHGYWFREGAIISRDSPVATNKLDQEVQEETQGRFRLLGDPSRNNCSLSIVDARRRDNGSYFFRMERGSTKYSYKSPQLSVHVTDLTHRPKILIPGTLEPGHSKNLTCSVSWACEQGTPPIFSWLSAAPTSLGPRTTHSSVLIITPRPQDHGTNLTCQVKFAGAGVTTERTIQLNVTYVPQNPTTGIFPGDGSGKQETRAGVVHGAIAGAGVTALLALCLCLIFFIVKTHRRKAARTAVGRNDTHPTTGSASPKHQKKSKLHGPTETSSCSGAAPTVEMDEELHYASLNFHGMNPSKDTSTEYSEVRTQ
# experimentDescription: alanine scan, flow cytometry, HEK293-T;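 also: antibody binding to each alanine-substituted CD33 mutant expressed transiently in HEK293-T, read as fluorescence minus background, mean of duplicates, relative to wild-type CD33 set as 100%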

The reported Mean % WT Binding of the binder Refmab #3 (antibody, V domains shown, The alanine scan used IgG or Fab) VH: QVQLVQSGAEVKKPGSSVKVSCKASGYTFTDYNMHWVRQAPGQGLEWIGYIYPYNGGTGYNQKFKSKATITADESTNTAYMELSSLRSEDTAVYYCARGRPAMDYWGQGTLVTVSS VL: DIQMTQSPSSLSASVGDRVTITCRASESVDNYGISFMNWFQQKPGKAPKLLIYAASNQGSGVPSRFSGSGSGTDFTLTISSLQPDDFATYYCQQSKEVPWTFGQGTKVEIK was 116 % WT binding

The reported Mean % WT Binding of the binder Refmab #4 (antibody, V domains shown, The alanine scan used IgG or Fab) VH: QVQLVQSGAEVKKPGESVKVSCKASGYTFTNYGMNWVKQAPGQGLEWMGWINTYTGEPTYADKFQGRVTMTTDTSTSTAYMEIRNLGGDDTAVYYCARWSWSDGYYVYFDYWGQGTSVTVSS VL: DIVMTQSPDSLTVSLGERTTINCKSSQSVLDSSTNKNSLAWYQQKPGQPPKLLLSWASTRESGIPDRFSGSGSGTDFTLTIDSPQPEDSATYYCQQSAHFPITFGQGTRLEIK was 99.9 % WT binding

The reported Mean % WT Binding of the binder Refmab #1 (antibody, V domains shown, The alanine scan used IgG or Fab; also called hP67.6) VH: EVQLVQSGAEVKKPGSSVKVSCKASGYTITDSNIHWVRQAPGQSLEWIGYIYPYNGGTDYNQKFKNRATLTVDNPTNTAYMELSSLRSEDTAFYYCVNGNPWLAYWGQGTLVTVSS VL: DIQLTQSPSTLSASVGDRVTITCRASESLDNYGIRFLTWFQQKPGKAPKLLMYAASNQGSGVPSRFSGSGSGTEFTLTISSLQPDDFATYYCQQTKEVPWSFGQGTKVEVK was 98.9 % WT binding

The reported Mean % WT Binding of the binder Refmab #2 (antibody, V domains shown, The alanine scan used IgG or Fab) VH: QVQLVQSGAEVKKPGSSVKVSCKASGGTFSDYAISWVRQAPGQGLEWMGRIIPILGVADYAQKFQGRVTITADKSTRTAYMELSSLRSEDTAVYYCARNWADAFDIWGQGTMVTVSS VL: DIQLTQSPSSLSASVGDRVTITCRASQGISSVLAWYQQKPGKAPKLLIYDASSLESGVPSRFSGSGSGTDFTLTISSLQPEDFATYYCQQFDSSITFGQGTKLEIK was 102 % WT binding
